Catalogue of compounds with associated viscosity
Assay: wn = mass fraction of the nth substance listed
Settings: 283.15 K; 101 kPa; Liquid; controlled-strain rheometer (ARES-RFS, TA Instruments); w1 = 0.3

Compound: O=C(CO)[C@@H](O)[C@H](O)[C@H](O)CO [D-fructose] + O
U: mPa·s
viscosity: 4.45
--
Compound: OC[C@H]1O[C@@](CO)(O[C@H]2O[C@H](CO)[C@@H](O)[C@H](O)[C@H]2O)[C@@H](O)[C@@H]1O [D-sucrose] + O
U: mPa·s
viscosity: 5.06
--
Compound: O=C[C@H](O)[C@@H](O)[C@@H](O)[C@H](O)CO [(+)-galactose] + O
U: mPa·s
viscosity: 4.57
--
Compound: O=C[C@H](O)[C@@H](O)[C@H](O)[C@H](O)CO [D-glucose] + O
U: mPa·s
viscosity: 4.83

---

Catalogue of compounds with associated viscosity
Assay: wn = mass fraction of the nth substance listed
Settings: 293.15 K; 101 kPa; Liquid; controlled-strain rheometer (ARES-RFS, TA Instruments); w1 = 0.1

Compound: O=C(CO)[C@@H](O)[C@H](O)[C@H](O)CO [D-fructose] + O
viscosity / mPa·s: 1.43

Compound: O=C[C@H](O)[C@@H](O)[C@H](O)[C@H](O)CO [D-glucose] + O
viscosity / mPa·s: 1.58

Compound: OC[C@H]1O[C@@](CO)(O[C@H]2O[C@H](CO)[C@@H](O)[C@H](O)[C@H]2O)[C@@H](O)[C@@H]1O [D-sucrose] + O
viscosity / mPa·s: 1.48

Compound: O=C[C@H](O)[C@@H](O)[C@@H](O)[C@H](O)CO [(+)-galactose] + O
viscosity / mPa·s: 1.52

---

Test: wn = mass fraction of the nth substance listed
Conditions: 293.15 K; 101 kPa; Liquid; controlled-strain rheometer (ARES-RFS, TA Instruments); w1 = 0.4
Numbers after ± are expanded uncertainties.
Catalogue of compounds with associated viscosity
Measurement Kind: viscosity

Compound: O=C[C@H](O)[C@@H](O)[C@H](O)[C@H](O)CO [D-glucose] + O
Result Value: 6.21 ± 0.62 mPa·s

Compound: OC[C@H]1O[C@@](CO)(O[C@H]2O[C@H](CO)[C@@H](O)[C@H](O)[C@H]2O)[C@@H](O)[C@@H]1O [D-sucrose] + O
Result Value: 7.53 ± 0.75 mPa·s

Compound: O=C[C@H](O)[C@@H](O)[C@@H](O)[C@H](O)CO [(+)-galactose] + O
Result Value: 6.11 ± 0.61 mPa·s

Compound: O=C(CO)[C@@H](O)[C@H](O)[C@H](O)CO [D-fructose] + O
Result Value: 5.67 ± 0.57 mPa·s

---

Experiment: wn = mass fraction of the nth substance listed
Conditions: 273.15 K; 101 kPa; Liquid; controlled-strain rheometer (ARES-RFS, TA Instruments); w1 = 0.3

Compound: OC[C@H]1O[C@@](CO)(O[C@H]2O[C@H](CO)[C@@H](O)[C@H](O)[C@H]2O)[C@@H](O)[C@@H]1O [D-sucrose] + O
U: mPa·s
viscosity: 7.19

Compound: O=C(CO)[C@@H](O)[C@H](O)[C@H](O)CO [D-fructose] + O
U: mPa·s
viscosity: 6.39

Compound: O=C[C@H](O)[C@@H](O)[C@@H](O)[C@H](O)CO [(+)-galactose] + O
U: mPa·s
viscosity: 6.93

Compound: O=C[C@H](O)[C@@H](O)[C@H](O)[C@H](O)CO [D-glucose] + O
U: mPa·s
viscosity: 8.17
